molecular target: Prostaglandin E2 receptor EP4 subtype (Homo sapiens); assay: Agonist activity at human prostaglandin EP4 receptor; type: functional
Sequence (P35408 whole entry): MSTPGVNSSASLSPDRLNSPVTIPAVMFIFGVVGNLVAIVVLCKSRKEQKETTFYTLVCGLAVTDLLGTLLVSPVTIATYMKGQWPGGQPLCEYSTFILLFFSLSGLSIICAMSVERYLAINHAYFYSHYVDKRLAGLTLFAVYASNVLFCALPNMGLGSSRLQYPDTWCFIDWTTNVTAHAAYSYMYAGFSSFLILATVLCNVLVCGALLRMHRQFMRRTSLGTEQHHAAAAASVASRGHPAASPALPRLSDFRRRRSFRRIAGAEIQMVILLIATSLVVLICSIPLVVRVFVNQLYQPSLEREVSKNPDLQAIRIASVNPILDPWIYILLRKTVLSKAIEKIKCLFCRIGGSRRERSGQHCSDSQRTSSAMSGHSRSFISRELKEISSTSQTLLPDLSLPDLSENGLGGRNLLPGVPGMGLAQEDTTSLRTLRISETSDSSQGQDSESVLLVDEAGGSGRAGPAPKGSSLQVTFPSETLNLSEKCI
endpoint-label: EC50 (nM)
Express it in nM; write the number only.

Reported EC50 (Prostaglandin E2 receptor EP4 subtype (Homo sapiens)) for entry O=C(O)c1ccc(CCN2C(=O)CCN2CC[C@@H](O)Cc2cccc(Br)c2)cc1 is 0.1

Reported EC50 (Prostaglandin E2 receptor EP4 subtype (Homo sapiens)) for entry O=C(O)c1ccc(CCN2C(=O)CCN2CCC(O)Cc2cccc(Br)c2)cc1 (stereo not drawn) is 0.2

Reported EC50 (Prostaglandin E2 receptor EP4 subtype (Homo sapiens)) for entry O=C(O)c1ccc(CCN2C(=O)CCN2CCC(O)Cc2cccc(Cl)c2)cc1 (stereo not drawn) is 0.2
